Assign TGI to each entry below.
tested on: SK-MEL-28 melanoma; experiment: NCI tumour cell line growth inhibition, 48 h
Give bare numbers, in µM.

Field: example entries. Status: answers known.
COMPOUND | READOUT LABEL | UNITS LABEL | OBS VALUE
CSC(C1c2ccccc2N(c2ccc(C)cc2)C2=NC(=O)N(C)C(=O)C21Cl)S(=O)(=O)c1ccc(C)cc1 (stereo unspecified) | TGI | µM | 45.1
Oc1ccc2ccccc2c1N=Nc1nccs1 | TGI | µM | 18.6
COC(=O)[C@]12CC[C@@H](C)[C@H](C)[C@@H]1C1=CC[C@@H]3[C@@]4(C)C/C(=N\O)[C@H](O)[C@@]5(C)COC(=C45)C[C@@]3(C)[C@]1(C)CC2 | TGI | µM | 33.7
C=C1C(=O)O[C@@]23C1CC[C@@H](C)C2CC[C@@]1(C)OC31 (stereo partly specified) | TGI | µM | 22.6
COc1cc2c(/C=C3/C(=O)Nc4ccccc43)c(Cl)[nH]c2cc1C | TGI | µM | 29.6

Please give TGI for each item listed below.
1. O=[N+]([O-])c1ccc(NC(=S)N=Nc2c(O)[nH]c3ccc(Br)cc23)cc1
2. O=C1C=C(c2ccccc2)O/C1=C/C(=O)c1ccc(Cl)cc1
3. O=c1[nH]ncc(Br)c1Br
4. CC(C)c1nc(CN(C)C(=O)N[C@H](C(=O)N[C@@H](Cc2ccccc2)C[C@H](O)[C@H](Cc2ccccc2)NC(=O)OCc2cncs2)C(C)C)cs1

Reply text:
1. 33.5
2. 32.9
3. 3.12
4. 47.2

* * *

tested on: KM20L2 colon; assay: NCI tumour cell line growth inhibition, 48 h
Would you kindly list TGI for each of these compounds?

COMPOUND | TEST TARGET | OBS VALUE
COc1ccc(/C=C/CN(C)CCc2ccccc2)cc1OC | KM20L2 colon | > 100 µM

# return TGI for each item in the list
1. O=C(CC1=NCCN1)c1ccccc1
2. Cc1cccc(C)c1NC(=O)C(=O)C1C(=O)NC(=O)NC1=O
3. O=C(/C=C/c1c(O)ccc2ccccc12)c1cccc(O)c1
4. COc1c(Br)cc(CC(N)=O)c(O)c1Br
5. C=CCOCCCCC(C(C)=O)C(=O)OC (stereo not given)
6. CCCCN=C(NC#N)NCCCC

Reply text:
> 750 µM
> 100 µM
> 100 µM
> 100 µM
> 100 µM
> 100 µM

* * *

test system: DU-145 prostate; assay: NCI tumour cell line growth inhibition, 48 h
READOUT LABEL: TGI

Study these solved cases before continuing.
COMPOUND | TGI
CCOC(=O)C(CC#Cc1ccc(C#CCC(NC(C)=O)C(=O)OCC)cc1)NC(C)=O (centres undefined) | > 100 µM
CC[C@@H]1CN(C)[C@H]2Cc3c([nH]c4ccccc34)C(=O)C[C@H]1C2C(=O)OC (some centres undefined) | > 100 µM
CCNC(=O)C1CCCN1C(=O)C(CCCN=C(N)N)NC(=O)C(CC(C)C)NC(=O)C(Cc1c[nH]c2ccccc12)NC(=O)C(Cc1ccc(O)cc1)NC(=O)C(CO)NC(=O)C(Cc1c[nH]c2ccccc12)NC(=O)C(Cc1cnc[nH]1)NC(=O)C1CCC(=O)N1 (centres undefined) | > 100 µM
COc1ccc(-c2cnnc3c(-c4cccc(C(F)(F)F)c4)cnn23)cc1 | > 100 µM
COCC1OC(N2C(=O)NC(=O)[C@@H]3C=C4CCCCC4=C[C@@H]32)C(OC)C1OC (some centres undefined) | > 100 µM

Dear colleague, could you send me TGI for each of the items below? Thanks.
1. CCC(C)C(=O)OC1CC2(C)C(c3ccoc3)OC(=O)CC23OC2(C)OC34C(OC(=O)C(C)C)C3(O)C(OC(=O)C5(C)OC5C)C5(C)CC3(O)C(C)(C5CC(=O)OC)C14O2 (centres undefined)
2. Cc1cc2ncc3c(=O)n(NS(=O)(=O)c4ccc(N)cc4)ccc3n2n1
3. O=C1C=CC(=O)c2c(O)c(NCCc3ccc(O)cc3)c(Cl)c(O)c21
4. O=c1oc2cc(O)ccc2c(O)c1C(c1ccc(C(c2c(O)c3ccc(O)cc3oc2=O)c2c(O)c3ccc(O)cc3oc2=O)cc1)c1c(O)c2ccc(O)cc2oc1=O
5. O=C1CCCCN1CCCCC#Cc1ccccc1C#Cc1ccc([N+](=O)[O-])cc1

Reply text:
> 100 µM
> 100 µM
> 10 µM
> 100 µM
36 µM

Record TGI for all entries; do not skip any.
1. COc1ccc(NC2=CC(=O)C(=O)c3ccccc32)nn1
2. CN1CCN(C)C12C=c1ccccc1=CC21CC1
3. COc1cc2c(/C=C3/C(=O)Nc4ccccc43)c(Cl)[nH]c2cc1C
4. CCN1CCC(O)(C(C(=O)O)c2ccccc2)CC1 (centres undefined)

Reply text:
3.19 µM
> 100 µM
1.08 µM
> 100 µM

Each compound below has a reported value. Please supply its TGI.
1. C=c1c(OC)c(OC)c(O)c2c1=c1cc([N+](=O)[O-])cc(OC)c1=N2
2. O=c1c2ccccc2nc(Nc2cccc(Cl)c2)n1/N=C/C=C/c1ccccc1
3. NC(=O)c1cc2ccccc2o/c1=N/O
4. CCC(C)c1c(Cl)nc(Cl)nc1Cl (centres undefined)
5. C[C@]12CC[C@H]3[C@@H](CC=C4C[C@@H](O)CC[C@@]43C)[C@@H]1CC[C@@H]2N(CCO)CCO

Reply text:
1: > 100 µM; 2: > 100 µM; 3: > 100 µM; 4: 30.4 µM; 5: > 100 µM

Could you report TGI for every entry in the following list?
1. N#Cc1c(-c2ccc(F)cc2)nc(N/N=C/c2c[nH]c3ccccc23)nc1N1CCOCC1
2. CN1CCN(C(=O)OCc2nc3c(N4CCOCC4)nc(Cl)nc3n2C)CC1

Reply text:
1. > 100 µM
2. 3.09 µM

Could I get TGI for every one of these entries?
1. Nc1c(C(=O)c2ccc(Cl)cc2)[nH]c(NCc2ccccc2)c1C(=S)Nc1ccccc1
2. CCOC(=O)C(NC(=O)CC(C)C)(N1CCN(c2cc3c(cc2F)c(=O)c(C(=O)O)cn3C2CC2)CC1)C(F)(F)F (centres undefined)
3. C=C1C(=O)O[C@@]23C1CC[C@@H](C)C2CC[C@@]1(C)OC31 (some centres undefined)
4. CC(=S)N=Cc1c(O)cc(C)oc1=O
5. COC(=O)Cc1c([C@H]2[C@H](CC(=O)OC)c3ccccc3N2C(C)=O)[nH]c2ccccc12

Reply text:
["13.1 µM", "> 100 µM", "35.5 µM", "> 100 µM", "> 100 µM"]

For each of the compounds below, state TGI.
1. OCc1c[nH]c2ccccc12
2. O=[N+]([O-])c1ccc(NC(=S)N=Nc2c(O)[nH]c3ccc(Br)cc23)cc1
3. COc1ccc(Nc2nc3c([nH]2)c(=O)n(C)c(=O)n3C)cc1
4. O=C(N/N=C/c1ccco1)c1cc(I)cc(I)c1O
5. CCC(=O)Oc1c2ccsc2c(OC(=O)CC)c2ccsc12

Reply text:
1: 77.4 µM; 2: 24.2 µM; 3: > 10 µM; 4: > 50 µM; 5: 0.679 µM

Quick request: TGI for each listed item, please.
1. CSc1nc2c(c(=O)n1C)N=C(c1ccccc1)[C@H](C(CC(=O)c1ccccc1)c1ccccc1)C(c1ccccc1)N2 (some centres undefined)
2. COc1ccc(-c2cc(=O)c3ccc(O)cc3o2)cc1OC

Reply text:
1. > 100 µM
2. > 100 µM

Record TGI per entry; entries follow.
1. COc1ccc(-c2c(C#N)c(N)nc3c2CCS(=O)(=O)c2ccccc2-3)cc1
2. Cc1cc2[nH]c3c(C#N)c4c(c(=O)n3c2cc1C)CCCC4
3. Cn1c2ccccc2c2c(-c3ccccc3)[n+]3ccncc3nc21
4. CC/C(=C(/c1ccc(O)cc1)c1ccc(OCCNC)cc1)c1ccccc1
5. N#Cc1cc2c(cc1Cl)Sc1nccn1S2(=O)=O
6. CCOC(=O)/C(C#N)=N\Nc1ccc(-n2c(C)nc3ccccc3c2=O)cc1

Reply text:
> 100 µM
> 100 µM
> 100 µM
6.81 µM
6.18 µM
> 100 µM
